# Measured target: T1, human IL4 (human, UniProt P05112 25-153, biotinylated in the SPR and competition assays (sites not given))
# T1 construct: Peprotech #200-04, mature protein produced in E. coli; also called hIL4; Interleukin 4
# T1 sequence: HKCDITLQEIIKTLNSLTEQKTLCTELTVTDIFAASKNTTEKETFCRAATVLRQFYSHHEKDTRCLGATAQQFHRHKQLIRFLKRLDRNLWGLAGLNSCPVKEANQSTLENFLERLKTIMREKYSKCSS
# Assay protocol: SPR ProteOn, biotin-IL4 on neutravidin chip, 1:1 fit
Measured metric: kon
Answer format reminder: number followed by unit.

Here are 2 binders together with their reported answers.
INSERT INTO measurements (binder, measured_metric, experimental_result) VALUES
  ('C06_43G2 (designed binder, ankyrin repeat protein; His-tagged, IMAC-purified) DLGKKLLEAARAGQDDEVRILMANGADVNAKDVTGETPLHLASWEGHLEIVEVLLKHGADVNAQDLFGITPLHLAAATDGHLEIVEVLLKNGADVNATDSNGFTPLHLAASYGHLEIVDVLLKNGADVNAHDFDGFTPLHLAASWGHLEIVEVLLKYGADVNAQDKFGKTAFDISIDNGNEDLAEILQKLN', 'kon', '1.4e+06 M⁻¹ s⁻¹'),
  ('C06_53G6 (designed binder, ankyrin repeat protein; His-tagged, IMAC-purified) NLGKKLLEAARAGQDDEVRILMANGADVNATDDWGDTLLHLAATDGHLEIVEVLLKYGADVNANDAIGDTPLHLAALYGHLEIVEVLLKYGADVNATDLHGFTPLHLAAFWGHLEIVEVLLKHGADVNAQDKFGKTAFDISIDNGNEDLAEILQKLN', 'kon', '696000 M⁻¹ s⁻¹');

Item C06_44F6 (designed binder, ankyrin repeat protein; His-tagged, IMAC-purified) DLGKELLEAARAGQDDEVHILMANGADVNALDDSGYTPLHLAAEDGHLEIVEVLLKHGADVNAMDNIGNTSLHLAAFDGHLEIVEVLLKYGADVNAVDLAGVTPLHVAAFYGHLEIVEVLLKHGADVNAQDKFGKTAFDISIDNGNEDLAEILQKLN has what recorded kon?
2.07e+06 M⁻¹ s⁻¹
